// data source = patent US20250275959A1

target: hACSL5 (Homo sapiens (Human), UniProt Q9ULC5); assay: Cell-based assay (CBA) with B12FA in hACSL5-transfected Expi293F / FlpIn TRex293 cells; conditions: hACSL5-expressing cells
Sequence (Q9ULC5 whole entry): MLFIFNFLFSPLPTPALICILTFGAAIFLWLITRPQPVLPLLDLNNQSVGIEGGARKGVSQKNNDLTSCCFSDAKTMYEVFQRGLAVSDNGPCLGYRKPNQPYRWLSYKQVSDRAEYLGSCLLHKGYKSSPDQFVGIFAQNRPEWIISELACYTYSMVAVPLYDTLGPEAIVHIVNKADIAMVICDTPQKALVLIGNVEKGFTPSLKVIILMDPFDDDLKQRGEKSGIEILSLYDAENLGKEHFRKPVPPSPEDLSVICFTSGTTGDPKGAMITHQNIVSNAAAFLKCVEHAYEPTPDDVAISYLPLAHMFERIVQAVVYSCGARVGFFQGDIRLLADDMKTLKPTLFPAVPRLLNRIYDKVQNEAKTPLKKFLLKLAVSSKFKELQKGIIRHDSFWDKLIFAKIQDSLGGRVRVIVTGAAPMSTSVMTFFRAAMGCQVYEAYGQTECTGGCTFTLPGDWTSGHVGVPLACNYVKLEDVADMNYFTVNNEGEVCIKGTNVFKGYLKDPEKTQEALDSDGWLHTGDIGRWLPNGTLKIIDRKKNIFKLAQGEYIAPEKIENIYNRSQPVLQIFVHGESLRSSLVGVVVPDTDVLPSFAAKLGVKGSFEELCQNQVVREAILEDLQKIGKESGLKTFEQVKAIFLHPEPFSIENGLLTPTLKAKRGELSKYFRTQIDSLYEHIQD
pIC50: −log10 of the molar value.
Reported values of pIC50 for individual entries
Parameter measured: pIC50

>>> measurement("CC[C@@H](Oc1ccc(C(=O)NS(=O)(=O)c2ccc(OC3CCNCC3)cc2)c(F)c1F)c1ccc(OCC2CC2)cn1")
"< 6.30"
>>> measurement("CC[C@@H](Oc1ccc(C(=O)NS(=O)(=O)c2ccc(OC3CCN(CC(C)(C)O)CC3)cc2)c(F)c1F)c1ccc(OCC2CC2)cn1")
"6.30 to 7.00"
>>> measurement("CC[C@@H](Oc1ccc(C(=O)NS(=O)(=O)c2ccc(NC3CCN(C)CC3)cn2)c(F)c1F)c1ccc(OCC2CC2)cn1")
"< 6.30"
